Each entry below lists one item and its recorded pKi value.
- target_system: Carbonic anhydrase 5A, mitochondrial (Homo sapiens, UniProt P35218)
- Sequence (P35218 whole entry): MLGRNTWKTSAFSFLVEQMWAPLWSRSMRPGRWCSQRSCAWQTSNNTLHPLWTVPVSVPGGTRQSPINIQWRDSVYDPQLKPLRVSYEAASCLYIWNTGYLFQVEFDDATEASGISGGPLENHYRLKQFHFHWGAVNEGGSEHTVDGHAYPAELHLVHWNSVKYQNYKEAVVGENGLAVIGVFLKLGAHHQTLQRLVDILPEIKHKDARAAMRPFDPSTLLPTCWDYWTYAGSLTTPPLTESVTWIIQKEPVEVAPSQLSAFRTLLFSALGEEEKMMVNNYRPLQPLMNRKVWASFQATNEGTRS
- assay_procedure: Inhibition of human recombinant carbonic anhydrase 5A preincubated with enzyme for 1 hr prior to testing by phenol red-based stopped-flow CO2 hydration assay
Note on pKi: it is the negative log10 of concentration, concentration in mol/L.

Documented pKi of CCSP(=O)(Oc1ccc(S(N)(=O)=O)cc1)c1ccccc1 (racemic) : 7.03

Documented pKi of CCCCCCCCCCCCSP(=O)(Oc1ccc(S(N)(=O)=O)cc1)c1ccccc1 (racemic) : 6.19

Documented pKi of NS(=O)(=O)c1ccc(OP(=O)(NCc2ccccc2)c2ccccc2)cc1 (racemic) : 7.23

Documented pKi of NS(=O)(=O)c1ccc(OP(=O)(O)c2ccccc2)cc1 : 7.12
